Tested on: Lefty1
experiment-description: Lefty1 binders on small-molecule microarrays, primary screen, biochemical, small-molecule microarray, 635/667 nm fluorescence (AID 1139)
assay-context: small-molecule microarray binding, fluorescence 635/667; higher = more signal
Consider the following molecules and their measured composite z-score readings.
Reply with the value as a number alone.

Sample records with composite z-score:
molecule	reading
COC(=O)c1ccc([C@H](NC(=O)c2ccco2)[C@]2(C)C[C@H]2C2CCCCC2)cc1	-1.58
O=C1N(Cc2ccccc2)Cc2ccccc2[C@@H]2OC(c3ccc(OCCCO)cc3)=N[C@]12CCS(=O)(=O)c1ccccc1	-0.0333
C=C(CCCC)/C(=C/C[C@@H](OC(=O)c1ccncc1)c1ccccc1OCCO)c1cnc2ccccc2c1	1.61
CN(C)c1ccc(C(O)C2C=CC3C(=O)N(c4ccccc4)C(=O)C3N2Nc2ccc([N+](=O)[O-])cc2)cc1 (centres undefined)	0.149
COC(=O)[C@@]1(Cc2ccccc2)[C@H]2c3cc(C(=O)N(C)C)n(Cc4c(CO)[nH]cc(C)c4=O)c3C[C@H]2CN1C(=O)c1ccccc1	-0.016

State its composite z-score on Lefty1: CCOC(=O)[C@H]1[C@@H]2C(=O)N3CCC[C@H]3[C@H](O[Si](C(C)C)(C(C)C)C(C)C)[C@H]2C=C2CCN(S(=O)(=O)c3ccc(C)cc3)C[C@H]21 0.672
